Where do the numbers come from? From PubChem BioAssay (NCI).

Assay: NCI Yeast Anticancer Drug Screen. Data for the sgs1 mgt1 strain (AID 161);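 also: 0% = growth of cultures given vehicle only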
Conditions: S. cerevisiae sgs1 mgt1 strain, at 50.0 µM
About 79,000 compounds went through this panel and 15% of them were active in at least one assay; those are over-represented in the sample as a whole. The source made the active and inactive calls. Rule as the data show it: active = growth inhibition above about 70%; inactive = the rest.
Just give me one of these, please: 1 = active, 0 = inactive

Q. # fetch the recorded call for O=C(O)/C(=C/c1ccc([N+](=O)[O-])cc1)c1ccc([N+](=O)[O-])cc1 here
A. 0

Q. # fetch the recorded call for CCCCn1cnc2c(=S)nc[nH]c21 here
A. 0

Q. Per the assay record, what outcome was assigned to CC1(C)C/C(=C\c2ccc([N+](=O)[O-])cc2)C(=O)c2ccccc21 ?
A. 1

Q. Record lookup: outcome of this test for O=c1c2ccccc2n2nnc3ccc(NCCNCCO)c1c32 ?
A. 0

Q. Just curious, what result did CCCCCCCCCCCCCCCCCCNC(=O)N1CCCCC1C (stereo not given) get here?
A. 0

Q. # fetch the recorded call for O=C(CNCc1ccccc1)NC(Cc1ccccc1)c1ccccc1 (stereo not given) here
A. 0

Q. GET /call?item= Cc1ccc(S(=O)(=O)Oc2c([N+](=O)[O-])cc(-c3ccccc3)cc2[N+](=O)[O-])cc1 returns the recorded outcome of this test.
A. 0

Q. What classification did FC(F)(F)c1cccc2[nH]cnc12 end up with in this test?
A. 0

Q. Kindly provide the recorded test outcome for the following molecule: O=c1[nH]c2nc3ccccc3c(=O)n2/c1=C/c1cccs1
A. 0

Q. Please indicate how the test categorized CN(c1ccccc1)c1ccc([N+](=O)[O-])cc1[N+](=O)[O-] .
A. 0

Q. Please state the recorded outcome for this molecule: O=C1C2C3C=CC(C2C(=O)N1CCl)C1C2C(=O)N(CCl)C(=O)C2C31 (stereo not given)
A. 0

Q. Recorded test outcome, item N=C(N)SCCC(=O)O
A. 0

Q. Look up the recorded call for CCCCCCCCCCCCCCCC[N+](C)(C)Cc1ccccc1 in this test.
A. 1

Q. Per the records of this test, what outcome belongs to O=[N+]([O-])c1ccc(N=C/C=C\Nc2ccc([N+](=O)[O-])cc2)cc1 ?
A. 0

Q. Short answer needed: outcome of this test for Nc1ccc2ccc3ccc(N)nc3c2n1 ?
A. 0

Q. How was O=C(O)c1cc2c(c3c1CCCC3)CCC1CCCC21 (stereo not given) classified in this test?
A. 0

Q. // param item: OC1CCCCCCCCCCC1C(O)(C(F)(F)F)C(F)(F)F (stereo not given) ; yields the recorded call
A. 1

Q. Assay outcome for Cc1cc2c(cc1C)NC1=C(N2)OC(c2cccc(O)c2)C1=O (stereo not given) : what was it?
A. 0

Q. Tell me the assay call for CCCCC1(CCO)C(=O)N=C(N)NC1=O (stereo not given) please.
A. 0

Q. Please share the test call associated with CC(C)CCCOC(=O)c1ccccc1 .
A. 0

Q. // return assay outcome for CCCCOC(=O)COc1ccc(OC)cc1
A. 0

Q. // outcome(item) with item = CC(=O)OC1CC2C(CCC3CC(C(C)=O)CCC32C)C2CCC(/C(C)=C/C=C(c3ccccc3)c3ccccc3)C12C (stereo not given)
A. 0

Q. What did the test return for CC12CC3CC(C)(C1)CC(CN=C(N)CS)(C3)C2 ?
A. 1

Q. // return assay outcome for COC(=O)CN(CC(=O)OC)C(C)=O
A. 0

Q. Per the records of this test, what outcome belongs to CCC(=O)C1(CCCN(C)C)c2ccccc2Sc2ccccc21 ?
A. 0
